B1: NR2F2 (parent)
chain: VAHVESLQEKSQCALEEYVRSQYP

Variants of: B1
ASSAY_NAME: protein stability index of a GFP-peptide fusion (GPS, HEK-293T) (PSI 1-6); higher = more stable;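 note: lentivirally expressed fusions sorted by FACS into six bins by GFP to DsRed ratio, PSI derived from sequencing read proportions per bin multiplied by bin number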
DETAILS: c terminus: a fixed tail appended
Label No if protein stability index falls below 3; label Yes in every other case.

The following variants have reported results that may help.
INSERT INTO measurements (mutant, discrete_label) VALUES
  ('L7S', 'Yes'),
  ('Q12H', 'No'),
  ('S6Q', 'Yes'),
  ('Q8D', 'Yes'),
  ('S11W', 'No'),
  ('H3P', 'Yes'),
  ('V1N', 'Yes'),
  ('E16Y', 'No'),
  ('A14F', 'No'),
  ('E9P', 'No');

Does the reported protein stability index for A14G fall at or above the 3 mark?
Yes

Does the reported protein stability index for V4I fall at or above the 3 mark?
Yes

Does the reported protein stability index for A14S fall at or above the 3 mark?
Yes

Does the reported protein stability index for A2N fall at or above the 3 mark?
Yes
